target: GLP-1 receptor; experiment: cell-based or functional assay
Where no end group is shown, it is not given here.
quantity-measured: GLP-1 receptor activation relative to Val^8-GLP-1(7-37)OH

# binder, value-reported
data = [
    ("HVEGTFTSDVSSWLEEQAAKEFIAWLVKGRG-OH [Val^8-Trp^19-Glu^22-GLP-1(7-37)OH]", "3.2 fold of Val^8-GLP-1(7-37)OH"),
]

Exercise: Name the reported GLP-1 receptor activation relative to Val^8-GLP-1(7-37)OH value associated with the binder HVEGTFTSDYSSFLEGQAAKEFIAWLVKGRG-OH [Val^8-Tyr^16-Phe^19-GLP-1(7-37)OH]
Solution: 2.8 fold of Val^8-GLP-1(7-37)OH

Exercise: Name the reported GLP-1 receptor activation relative to Val^8-GLP-1(7-37)OH value associated with the binder HVEGTFTSDWSSYLEEQAVKEFIAWLIKGRG-OH [Val^8-Trp^16-Glu^22-Val^25-Ile^33-GLP-1(7-37)OH]
Solution: 5 fold of Val^8-GLP-1(7-37)OH

Exercise: Name the reported GLP-1 receptor activation relative to Val^8-GLP-1(7-37)OH value associated with the binder HVEGTFTSDVSSYLEGQAAKEFIAWLVKGRH-OH [Val^8-His^37-GLP-1(7-37)OH]
Solution: 1.2 fold of Val^8-GLP-1(7-37)OH

Exercise: Name the reported GLP-1 receptor activation relative to Val^8-GLP-1(7-37)OH value associated with the binder HVEGTFTSDVSSYLEEQAAKEFIAWLVKGRH-OH [Val^8-Glu^22-His^37-GLP-1(7-37)OH]
Solution: 4.7 fold of Val^8-GLP-1(7-37)OH

Exercise: Name the reported GLP-1 receptor activation relative to Val^8-GLP-1(7-37)OH value associated with the binder HVEGTFTSDVSKYLEEQAAKEFIAWLVKGRG-OH [Val^8-Lys^18-Glu^22-GLP-1(7-37)OH]
Solution: 2.5 fold of Val^8-GLP-1(7-37)OH
